The measurements presented in this section are drawn from ChEMBL document CHEMBL5620417.

- System: MDA-MB-231
- EXPERIMENTAL_DETAILS: Antiproliferative activity against human MDA-MB-231 cells assessed as reduction in cell viability at >=100 uM incubated for 5 days by PrestoBlue reagent based glo-max fluorescence assay
- Type: functional
- CONDITION_SUMMARY: time 5.0 day
Activity calls are given as the source filed them. No cut-off for these calls is given here.
READOUT: Activity

Cc1ccc(S(=O)(=O)N2CCc3ccccc3C2)cc1 | inactive
COc1cc2c(cc1OC)CN(S(=O)(=O)c1ccc([N+](=O)[O-])cc1)CC2 | inactive
COc1cc2c(cc1OC)CN(S(=O)(=O)c1ccc(C)cc1)CC2 | inactive
Cc1ccc(S(=O)(=O)N2CCc3c(N)cccc3C2)cc1 | inactive

Report measured Activity; entry is Nc1cccc2c1CN(S(=O)(=O)c1ccc([N+](=O)[O-])cc1)CC2
inactive

Fill in Activity for record Cc1ccc(S(=O)(=O)N2CCc3cccc(N)c3C2)cc1
inactive

Answer with reported Activity of Nc1cccc2c1CCN(S(=O)(=O)c1ccc([N+](=O)[O-])cc1)C2
inactive
